Where do these numbers come from? They come from the kinase profiling compilation of Christmann-Franck et al. (2016).

targetEntity: BRAF (human)
assayProtocol: KINOMEscan competition binding
cond: compound 10.0 µM
assayReadout: kinase still bound, per cent of control (%)
Quick note: give the figure in %, leave out the unit.

CC[C@@H]1C(=O)N(C)c2cnc(Nc3ccc(C(=O)NC4CCN(C)CC4)cc3OC)nc2N1C1CCCC1; 100

Please supply the value of reported kinase still bound, per cent of control for the item N#Cc1c(NC(=O)c2cccc3ccccc23)sc2c1CCCC2
100

Please supply the value of reported kinase still bound, per cent of control for the item Nc1ccc(-c2ccc3ncc4ccc(=O)n(-c5cccc(C(F)(F)F)c5)c4c3c2)cn1
73

Please supply the value of reported kinase still bound, per cent of control for the item Cc1ccc(C(=O)Nc2cccc(C(F)(F)F)c2)cc1Nc1cncc(C(N)=O)c1
2

Please supply the value of reported kinase still bound, per cent of control for the item OCCCNc1cc(-c2ccnc(Nc3cccc(Cl)c3)n2)ccn1
100

* * *

Catalogue of kinase still bound, per cent of control values
targetEntity: TEK (human)
assayProtocol: KINOMEscan competition binding
cond: compound 10.0 µM
Quick note: give the figure in %, leave out the unit.

The cases that follow already have their kinase still bound, per cent of control on record.
Nc1ccc(-c2ccc3ncc4ccc(=O)n(-c5cccc(C(F)(F)F)c5)c4c3c2)cn1; 100
COc1cc(C(=O)NC2CCN(C)CC2)ccc1Nc1ncc2c(n1)N(C1CCCC1)CCC(=O)N2C(C)C; 100
O=C(NC1CC1)c1cccc(-c2ccc3c(NC(=O)C4CC4)n[nH]c3c2)c1; 54
Cc1ccc(NC(=O)c2cccc(C(C)(C)C#N)c2)cc1Nc1ccc2ncn(C)c(=O)c2c1; 62

Enter recorded kinase still bound, per cent of control with TEK (human) for CCC(=O)N1CCN(c2ccc(-n3c(=O)ccc4cnc5ccc(-c6cnc7ccccc7c6)cc5c43)cc2C(F)(F)F)CC1 here.
19

Enter recorded kinase still bound, per cent of control with TEK (human) for COc1cc(N2CCN(C)CC2)ccc1Nc1nc(N)c(C(=O)c2c(Cl)cccc2Cl)s1 here.
88

Enter recorded kinase still bound, per cent of control with TEK (human) for C=CC(=O)Nc1cccc(Oc2nc(Nc3ccc(N4CCN(C)CC4)cc3OC)ncc2Cl)c1 here.
100

Enter recorded kinase still bound, per cent of control with TEK (human) for C=CC(=O)Nc1cccc(Nc2nc(N[C@H]3CC[C@H](N(C)C)CC3)nc3c2ncn3C(C)C)c1 here.
95

Enter recorded kinase still bound, per cent of control with TEK (human) for CCCS(=O)(=O)Nc1ccc(F)c(C(=O)c2c[nH]c3ncc(-c4ccc(Cl)cc4)cc23)c1F here.
62

* * *

targetEntity: TNNI3K (human)
assayProtocol: KINOMEscan competition binding
cond: compound 10.0 µM
assayReadout: kinase still bound, per cent of control

The cases that follow already have their kinase still bound, per cent of control on record.
CC[C@@H]1C(=O)N(C)c2cnc(Nc3ccc(C(=O)NC4CCN(C)CC4)cc3OC)nc2N1C1CCCC1; 100%
CCN1CCN(Cc2ccc(Nc3ncc4c(n3)N(C)c3ccccc3C(=O)N4C)cc2C(F)(F)F)CC1; 78%
C=CC(=O)Nc1cc(NC(=O)c2ccc(C)c(NC(=O)c3ccno3)c2)cc(C(F)(F)F)c1; 54%
O=C(NC1CC1)c1cccc(-c2ccc3c(NC(=O)C4CC4)n[nH]c3c2)c1; 92%
CN(C)C/C=C/C(=O)Nc1cccc(Nc2ncc3c(n2)N(C)c2ccccc2C(=O)N3C)c1; 28%

Please supply the value of reported kinase still bound, per cent of control for the item CCOc1cc2ncc(C#N)c(Nc3ccc(OCc4ccccn4)c(Cl)c3)c2cc1NC(=O)/C=C/CN(C)C
100%

Please supply the value of reported kinase still bound, per cent of control for the item C[C@@H](Oc1cc(-n2cnc3ccc(CN4CCN(C)CC4)cc32)sc1C(N)=O)c1ccccc1C(F)(F)F
92%

Please supply the value of reported kinase still bound, per cent of control for the item COc1cc(C(=O)NC2CCN(C)CC2)ccc1Nc1ncc2c(n1)N(C1CCCC1)CCC(=O)N2C(C)C
100%

Please supply the value of reported kinase still bound, per cent of control for the item O=C(NOC[C@H](O)CO)c1ccc(F)c(F)c1Nc1ccc(I)cc1F
51%

Please supply the value of reported kinase still bound, per cent of control for the item Cc1ccc2nc(NCCN)c3ncc(C)n3c2c1
100%

Please supply the value of reported kinase still bound, per cent of control for the item Cc1cc([C@@H](C)Nc2ccccc2C(=O)O)c2nc(N3CCOCC3)cc(=O)n2c1
88%

Please supply the value of reported kinase still bound, per cent of control for the item COc1cc(C(=O)NC2CCN(C)CC2)ccc1Nc1ncc2c(n1)N(C1CCCC1)C(C)CC(=O)N2C (centres undefined)
100%

Please supply the value of reported kinase still bound, per cent of control for the item Cc1ccc(C(=O)Nc2cccc(C(F)(F)F)c2)cc1Nc1cncc(C(N)=O)c1
12%

Please supply the value of reported kinase still bound, per cent of control for the item COc1cc(N2CCN(C)CC2)ccc1Nc1nc(N)c(C(=O)c2c(Cl)cccc2Cl)s1
82%

Please supply the value of reported kinase still bound, per cent of control for the item O=C(O)c1ccc(Nc2ncc3c(n2)-c2ccc(Cl)cc2C(c2c(F)cccc2F)=NC3)cc1
85%

Please supply the value of reported kinase still bound, per cent of control for the item Cn1c(=O)n(-c2ccc(C(C)(C)C#N)cc2)c2c3cc(-c4cnc5ccccc5c4)ccc3ncc21
100%

Please supply the value of reported kinase still bound, per cent of control for the item C=CC(=O)Nc1cccc(Oc2nc(Nc3ccc(N4CCN(C)CC4)cc3OC)ncc2Cl)c1
100%

Please supply the value of reported kinase still bound, per cent of control for the item Nc1ccc(-c2ccc3ncc4ccc(=O)n(-c5cccc(C(F)(F)F)c5)c4c3c2)cn1
100%

Please supply the value of reported kinase still bound, per cent of control for the item OCCCNc1cc(-c2ccnc(Nc3cccc(Cl)c3)n2)ccn1
100%
